Below: molecules with Ki recorded for UniProtKB P00918 in separate published works.
Answers are plain numbers, in nM.

Study these solved cases before continuing.
molecule: CN(C)CCOC(=O)c1cccc(S(=O)(=O)/N=c2/sc(S(N)(=O)=O)nn2C)c1
uom: nM
Ki: 2.9
//
molecule: CCc1cc(-c2ccccc2)cc(CC)[n+]1Cc1ccc(S(N)(=O)=O)cc1
uom: nM
Ki: 21
//
molecule: O=C(Nc1ccc2c(c1)S(=O)(=O)NC2=O)c1cccc(Br)c1
uom: nM
Ki: 837
//
molecule: CSCC[C@H](NC(=O)c1ccc(S(N)(=O)=O)cc1)C(=O)O
uom: nM
Ki: 66
//
molecule: NS(=O)(=O)c1ccccc1NCc1cc(=O)oc2cc(Cl)ccc12
uom: nM
Ki: 270
//
molecule: CCOC(=O)c1cc(S(N)(=O)=O)c(S)cc1Cl
uom: nM
Ki: 18.5
//
molecule: CC(C)(C)N1C(=O)C=C(c2cn(S(=O)(=O)c3ccccc3)c3ccccc23)S1(=O)=O
uom: nM
Ki: 81.8
//
molecule: NS(=O)(=O)c1ccc(CNc2nc(Cl)nc(NC(Cc3ccc(O)c(O)c3)C(=O)O)n2)cc1 (racemic)
uom: nM
Ki: 475

// each listed molecule needs a value for Ki
1. CC(=O)Nc1ccc(S(=O)(=O)Nc2nnc(S(N)(=O)=O)s2)cc1Br
2. C[C@H](CCC(=O)Nc1ccccc1S(N)(=O)=O)[C@H]1CC[C@H]2[C@@H]3C(=O)C[C@@H]4CC(=O)CC[C@]4(C)[C@H]3CC(=O)[C@]12C
3. CC(C)OC(=O)c1ccc(O)c(O)c1
4. CC(=O)N1N=C(c2ccccc2)CC1c1cccc(OS(N)(=O)=O)c1 (stereo unspecified)
5. NS(=O)(=O)c1ccc(-c2cnc(C(=O)N3CCNCC3)o2)cc1
6. NS(=O)(=O)c1cccc(NS(=O)(=O)c2ccc(NSC(=S)N3CCOCC3)cc2)c1
7. NS(=O)(=O)c1ccc(CCC(=O)c2cccc(C(=O)O)n2)cc1

[2, 170, 420, 16.5, 5, 7, 8.99]

// each listed molecule needs a value for Ki
1. NS(=O)(=O)c1ccc(CNC(=O)c2ccc(Br)cc2)cc1
2. NS(=O)(=O)c1ccc(CNC(=S)N[C@@H]2O[C@H](CO)[C@@H](O)[C@H](O)[C@H]2O)cc1

[63, 377]

---

Below: molecules with pKi recorded for Carbonic anhydrase 2 (Homo sapiens, UniProt P00918) in separate published works.
Answers are plain numbers, as −log10 of the molar value.

Study these solved cases before continuing.
molecule: Nc1nc(-c2ccc(NCC(=O)c3ccc(S(N)(=O)=O)cc3)cc2)cn2c(=O)n(-c3ccccc3)nc12
pKi: 6.61
//
molecule: CCCC(CCC)C(=O)Nc1ccc(S(N)(=O)=O)cc1Cl
pKi: 7.30
//
molecule: CC(=O)OC[C@H]1O[C@@H](NC(=S)NCc2ccc(S(N)(=O)=O)cc2)[C@H](OC(C)=O)[C@@H](OC(C)=O)[C@@H]1OC(C)=O
pKi: 8.11
//
molecule: Nc1c(I)cc(S(=O)(=O)Nc2nnc(S(N)(=O)=O)s2)cc1I
pKi: 9.05

// each listed molecule needs a value for pKi
1. NS(=O)(=O)c1ccc(NC(=O)CSC(=S)N2CCN(C(c3ccccc3)c3ccccc3)CC2)cc1
2. NCCCCNCCCN
3. C[C@H](CCC(=O)OCc1ccc(S(N)(=O)=O)cc1)[C@H]1CC[C@H]2[C@@H]3[C@H](O)C[C@@H]4C[C@H](O)CC[C@]4(C)[C@H]3C[C@H](O)[C@]12C
4. Nc1nc(-c2ccc(NC(=O)c3ccc(O)cc3)cc2)cn2c(=O)n(-c3ccccc3)nc12
5. CC(C)c1cc(-c2ccccc2)cc(C(C)C)[n+]1CCc1ccc(S(N)(=O)=O)cc1
6. CCCC(CCC)C(=O)OCCOc1ccc2nc(S(N)(=O)=O)sc2c1

1: 6.36; 2: 5.95; 3: 7.01; 4: 4.33; 5: 7.68; 6: 8.15

---

Below: compounds with Ki recorded for Carbonic anhydrase 2 (Homo sapiens, UniProt P00918) in separate published works.

// each listed compound needs a value for Ki
1. NS(=O)(=O)c1cc(S(N)(=O)=O)c(NC(=O)c2cccc(C(=O)O)n2)c(Cl)c1NC(=O)c1cccc(C(=O)O)n1
2. CCn1cc(S(N)(=O)=O)c2cc(NC(=O)c3ccnc(O)c3)ccc21
3. NS(=O)(=O)c1ccc(CNC(=O)c2cc(Cl)ccc2Cl)cc1

1: 10 nM; 2: > 100000 nM; 3: 31.6 nM

---

Below: compounds with Ki recorded for Carbonic anhydrase 2 (Homo sapiens) in separate published works.
Give bare numbers, in nM.

Study these solved cases before continuing.
item smiles: CC(=O)O[C@H]1[C@@H](OC(C)=O)[C@@H](CO)O[C@@H]([Se]c2ccc(S(N)(=O)=O)cc2)[C@@H]1OC(C)=O
Ki (nM): 17.2

item smiles: CNC(=O)COC(=O)[C@H](CC(N)=O)/N=C(\S)Nc1ccc(S(N)(=O)=O)cc1
Ki (nM): 4

// each listed compound needs a value for Ki
1. COc1cccc(-c2noc(-c3csc(S(N)(=O)=O)c3)n2)c1
2. C[C@H](NC(=O)c1ccc(S(N)(=O)=O)cc1)C(=O)O
3. C[C@H](CCC(=O)Nc1ccc(S(N)(=O)=O)cc1I)[C@H]1CC[C@H]2[C@@H]3[C@H](O)C[C@@H]4C[C@H](O)CC[C@]4(C)[C@H]3C[C@H](O)[C@]12C
4. N/C(=N\S(=O)(=O)c1ccccc1SCc1ccc(C(F)(F)F)cc1)NNc1nc(Cl)nc(Nc2ccc(S(N)(=O)=O)cc2)n1
5. NS(=O)(=O)c1ccc(C(=O)N[C@@H](CCC(=O)O)C(=O)O)cc1

1: 0.82; 2: 79; 3: 53; 4: 22; 5: 74

The compound Nc1c(F)cc(S(N)(=O)=O)cc1Cl showed Ki equal to 32

---

Below: compounds with Ki recorded for Carbonic anhydrase 2 (Homo sapiens, UniProt P00918) in separate published works.
Numbers only, in µM.

Study these solved cases before continuing.
compound: NS(=O)(=O)c1ccc(Nc2nc(NCCC(=O)O)nc(NCCC(=O)O)n2)cc1
Ki, µM: 0.368

compound: NS(=O)(=O)NS(=O)(=O)c1c(F)c(F)c(F)c(F)c1F
Ki, µM: 0.01

compound: NS(=O)(=O)c1ccc(N2N=C(c3ccc(Cl)c(Cl)c3)CCC2=O)cc1
Ki, µM: 0.0741

compound: O=C1c2ccccc2S(=O)(=O)N1CC(O)COc1ccc(Cl)cc1 (centres undefined)
Ki, µM: 1.8

compound: CC(=O)N1N=C(c2ccc(OS(N)(=O)=O)cc2)CC1c1ccc(Cl)cc1Cl (centres undefined)
Ki, µM: 0.0093

compound: CC[C@H](C)[C@H](NC(=S)Nc1ccc(S(N)(=O)=O)cc1)C(=O)O
Ki, µM: 0.004

compound: C[C@H](CCC(=O)Nc1cccc(S(N)(=O)=O)c1)[C@H]1CC[C@H]2[C@@H]3[C@H](O)C[C@@H]4C[C@H](O)CC[C@]4(C)[C@H]3C[C@H](O)[C@]12C
Ki, µM: 0.218

compound: NS(=O)(=O)Oc1ccc(I)cc1
Ki, µM: 0.0038

// each listed compound needs a value for Ki
1. NS(=O)(=O)c1ccc(NC(=O)CN2C(=O)NC3(CCCCCC3)C2=O)cc1
2. NS(=O)(=O)c1ccc(NCc2cc(=O)oc3cc(Cl)ccc23)c(F)c1

1. 0.0012
2. 0.03

// each listed compound needs a value for Ki
1. NS(=O)(=O)c1cccc(NS(=O)(=O)c2ccc(NCc3cc(=O)oc4cc(Cl)ccc34)cc2)c1
2. NS(=O)(=O)c1ccc(C(=O)N[C@@H](Cc2ccc(O)cc2)C(=O)O)cc1
3. COc1cc(S(N)(=O)=O)ccc1-c1noc(-c2ccc(C#N)cc2)n1

0.006
0.045
0.593

---

Below: compounds with pKi recorded for Carbonic anhydrase 2 (Homo sapiens) in separate published works.
Give bare numbers, as −log10 of the molar value.

compound: NS(=O)(=O)c1ccc(N/C(S)=N/C(Cc2c[nH]cn2)C(=O)O)cc1 (stereo not given)
pKi: 8.30

compound: CC(=O)O[C@H]1[C@@H](OC(C)=O)[C@@H](CO)O[C@@H]([Se]c2ccc(S(N)(=O)=O)c(N)c2)[C@@H]1OC(C)=O
pKi: 5.18

Pending compound:
The compound O=C1Nc2c(Cl)cccc2S(=O)(=O)N1 showed pKi equal to 6.16

---

pKi: −log10 of the molar value.
Below: molecules with pKi recorded for Carbonic anhydrase 2 (Homo sapiens, UniProt P00918) in separate published works.
# binarize pKi: threshold 8 inclusive, high side rule met, low side rule not met

molecule: C[C@H](CCC(=O)OCc1ccc(S(N)(=O)=O)cc1)[C@H]1CC[C@H]2[C@@H]3CC[C@@H]4C[C@H](O)CC[C@]4(C)[C@H]3CC[C@]12C
label value: rule not met
--
molecule: CN(C)CCOCCOC(=O)c1ccc(S(=O)(=O)Nc2nnc(S(N)(=O)=O)s2)cc1
label value: rule met
--
molecule: COc1ccc(OC)c(-c2nc(SCC(=O)c3ccccc3)nc(Nc3cccc(S(N)(=O)=O)c3)c2C#N)c1
label value: rule not met
--
molecule: C=CCOc1ccc2ccc(=O)oc2c1
label value: rule not met
--
molecule: CCCN(CCC)S(=O)(=O)c1ccc(C(=O)NCCN2CCCCC2)cc1
label value: rule not met

// inclusive: pKi at least 8? input: NS(=O)(=O)c1ccc(Nc2nc(Cl)nc(NC(CO)C(=O)O)n2)cc1 (racemic) rule not met
